Hello, the source for this data is patent US6635641B2, in case you need it.

target: phosphorylated VEGF-R2Δ50 (FLVK-P) (Homo sapiens, UniProt P35968, DEL940-989/E990V); construct: VEGF-R2Δ50 contains residues 806-939 and 990-1171; made in house; host or cells: baculovirus/insect cells; test: VEGF-R2 coupled spectrophotometric assay, phosphorylated construct (FLVK-P); assay type: biochemical
Sequence (P35968 with tags, fused parts or gaps DEL940-989/E990V limits assumed): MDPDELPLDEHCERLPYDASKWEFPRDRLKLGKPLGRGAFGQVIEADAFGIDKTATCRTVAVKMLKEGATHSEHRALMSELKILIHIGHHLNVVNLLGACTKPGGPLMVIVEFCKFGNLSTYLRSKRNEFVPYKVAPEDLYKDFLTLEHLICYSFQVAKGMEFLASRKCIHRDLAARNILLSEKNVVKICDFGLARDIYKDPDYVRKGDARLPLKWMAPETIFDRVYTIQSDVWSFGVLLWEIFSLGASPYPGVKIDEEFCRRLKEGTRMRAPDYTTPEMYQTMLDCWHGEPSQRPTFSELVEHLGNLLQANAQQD
observationType: pKi
Keep it numeric: pKi is minus log10 of the concentration in mol/L.

Solved entries:
{"columns": ["compound", "system", "pKi"],
 "data": [
  ["O=C(Nc1ccc2ncccc2c1)c1cccc(CSc2ncnc3[nH]ncc23)c1 [Example B-3]", "phosphorylated VEGF-R2Δ50 (FLVK-P) (Homo sapiens, UniProt P35968, DEL940-989/E990V)", 6.39],
  ["CC(=O)Nc1ccc(COc2cccc(C(=O)Nc3ccc4nc(C)ccc4c3)c2)cn1 [Example N-1]", "phosphorylated VEGF-R2Δ50 (FLVK-P) (Homo sapiens, UniProt P35968, DEL940-989/E990V)", 8.43],
  ["Cc1cc(NC(=O)c2ccc(Cl)c(OCc3cncc4ccccc34)c2)ccc1C(C)C [Example K-12]", "phosphorylated VEGF-R2Δ50 (FLVK-P) (Homo sapiens, UniProt P35968, DEL940-989/E990V)", 8.53],
  ["COc1ccc(Nc2cc(CCc3cccc(C(=O)Nc4cnc(N(C)C)c(C(F)(F)F)c4)c3)[nH]n2)cn1 [Example G-6]", "phosphorylated VEGF-R2Δ50 (FLVK-P) (Homo sapiens, UniProt P35968, DEL940-989/E990V)", 8.70],
  ["COc1cc(NC(=O)c2cccc(OCc3cccnc3)c2)cc(OC)c1OC [Example K-5]", "phosphorylated VEGF-R2Δ50 (FLVK-P) (Homo sapiens, UniProt P35968, DEL940-989/E990V)", 5.90]
]}

Q: Look up pKi for this compound: Cc1cc(NC(=O)c2cccc(CCc3cc(Nc4ccccc4)n[nH]3)c2)ccc1C(C)C [Example G-3]
Result: 9.71

Q: Which pKi is listed for Cc1ccc(C(=O)Nc2ccc(C(C)C)c(C)c2)cc1OCc1cncc2ccccc12 [Example K-11] ?
Result: 8.46

Q: Which pKi value is on record for Cc1cc(NC(=O)c2cccc(OCc3cncc4ccccc34)c2)ccc1C(C)C [Example K-1] ?
Result: 8.84

* * *

# reported log10 of IC50; entries follow
test system: human umbilical vein endothelial cells (HUVEC); test: HUVEC proliferation assay (VEGF-stimulated, MTT); assay type: cell-based; conditions: Homo sapiens, HUVEC; read-out: HUVEC IC50
Values are log10 of IC50 in nM.

Here's what some known entries look like.
{"columns": ["molecule", "log10 of IC50"],
 "data": [
  ["COc1ccc(Nc2cc(COc3cc(C(=O)Nc4ccc(N5CCCC5)c(C(F)(F)F)c4)ccc3F)[nH]n2)cn1 [Example J-2]", 1.41],
  ["COc1cc(NC(=O)c2cccc(CSc3ncnc4[nH]ncc34)c2)cc(C(F)(F)F)c1 [Example B-16]", 2.57],
  ["N#Cc1ccc(NC(=O)c2cccc(CSc3ncnc4[nH]ncc34)c2)cc1C(F)(F)F [Example B-12]", 2.72],
  ["Cc1cc(NC(=O)c2cccc(CCc3cncc4ccccc34)c2)ccc1C(C)C [Example S-3]", 2.26],
  ["Cl.O=C(Nc1ccc(N2CCOCC2)c(C(F)(F)F)c1)c1ccc(F)c(OCc2cncc3ccccc23)c1 [Example R-14]", 1.15]
]}

Q: Item COc1ccc(Nc2cc(CCc3cccc(C(=O)Nc4cnc(N(C)C)c(C(F)(F)F)c4)c3)[nH]n2)cn1 [Example G-6] has what recorded log10 of IC50?
Result: 1.08

Q: What does the data say about its log10 of IC50? Entry: O=C(Nc1cc(Cl)c(N2CCNCC2)c(Cl)c1)c1ccc(F)c(OCc2cccnc2)c1 [Example R-19]
Result: 1.81

Q: For the molecule CC1(C)OC(C)(C)c2cc(NC(=O)c3cccc(OCc4cncc5ccccc45)c3)ccc21 [Example R-10] , what log10 of IC50 is on record?
Result: 1.45
